protocol-notes: Inhibition of H+/K+/ATPase
measurement-label: pIC50
Expect pIC50 as a plain number equal to -log10 of the molar concentration.

# input What does the record list as pIC50 for Cc1ccc2c(c1)CCN(c1nc(C(O)c3ccc(F)cc3)nc(C)c1C)C2C (configuration not stated) ?
# output 5.82

# input What does the record list as pIC50 for Cc1ccc2c(c1)CCN(c1nc(C(F)c3ccc(F)cc3)nc(C)c1C)C2C (configuration not stated) ?
# output 5.95

# input What does the record list as pIC50 for Cc1ccc2c(c1)CCN(c1nc(Cc3ccc(F)cc3)nc(C)c1C)C2C (configuration not stated) ?
# output 6.64

----------
protocol-notes: Inhibition of H+/K+/ATPase
Where a name gives a salt, the structure may show the parent alone.
Binary call on IC50 with cut-off 1000 nM: strictly below means 1, and equality or higher means -1.

Solved cases below.
compound | assigned-label
Cc1nc(Nc2ccc(F)cc2)nc(N2CCc3ccccc3C2C)c1C (centres undefined) [REVAPRAZAN HYDROCHLORIDE] | 1
Cc1ccc2c(c1)CCN(c1nc(C3(c4ccc(F)cc4)CC3)nc(C)c1C)C2C (centres undefined) | -1
Cc1cccc2c1C(C)N(c1nc(Cc3ccc(F)cc3)nc(C)c1C)CC2 (centres undefined) | 1
Cc1ccc2c(c1)CCN(c1nc(C(=O)c3ccc(F)cc3)nc(C)c1C)C2C (centres undefined) | -1
Cc1nc(Cc2ccc(F)cc2)nc(N2CCc3ccc(F)cc3C2C)c1C (centres undefined) | -1

# input Here's an entry: COc1ccc2c(c1)C(C)N(c1nc(C(=O)c3ccc(F)cc3)nc(C)c1C)CC2 (centres undefined) . Is its IC50 below 1000 nM?
# output -1

# input Here's an entry: Cc1ccc2c(c1)CCN(c1nc(C(C)(C)c3ccc(F)cc3)nc(C)c1C)C2C (centres undefined) . Is its IC50 below 1000 nM?
# output -1

# input Here's an entry: Cc1nc(Cc2ccc(F)cc2)nc(N2CCc3cc(Cl)ccc3C2C)c1C (centres undefined) . Is its IC50 below 1000 nM?
# output 1

# input Here's an entry: Cc1nc(Cc2ccc(F)cc2)nc(N2CCc3ccc(Cl)cc3C2C)c1C (centres undefined) . Is its IC50 below 1000 nM?
# output -1

# input Here's an entry: COc1ccc2c(c1)CCN(c1nc(Cc3ccc(F)cc3)nc(C)c1C)C2C (centres undefined) . Is its IC50 below 1000 nM?
# output 1

# input Here's an entry: Cc1nc(Cc2ccc(F)cc2)nc(N2CCc3c(Cl)cccc3C2C)c1C (centres undefined) . Is its IC50 below 1000 nM?
# output -1

----------
protocol-notes: Inhibition of H+/K+/ATPase
measurement-label: IC50 (µM)
Give just the number in µM; leave the unit off.

molecule | endpoint-unit | IC50
Cc1ccc2c(c1)C(C)N(c1nc(Cc3ccc(F)cc3)nc(C)c1C)CC2 (stereo not drawn) | µM | 0.3
COc1ccc2c(c1)C(C)N(c1nc(Cc3ccc(F)cc3)nc(C)c1C)CC2 (stereo not drawn) | µM | 0.052

Shift focus to the following entry.
# input What does the record list as IC50 for Cc1nc(Cc2ccc(F)cc2)nc(N2CC(C)c3ccccc3C2C)c1C (stereo not drawn) ?
# output 0.61
